target: dopamine transporter ([^3 H]CFT binding sites, primate caudate-putamen) (Macaca fascicularis); construct: from tissue; host or cells: caudate-putamen membranes of cynomolgus monkey brain; experiment: Inhibition of [^3 H]CFT binding in monkey caudate-putamen membranes (Table 2); design: species or system cynomolgus monkeys (Macaca fascicularis); conditions: read-out: IC50

{"columns": ["compound", "quantity unit", "IC50"],
 "data": [
  ["COC(=O)[C@H]1[C@@H](c2ccccc2)C[C@@H]2CC[C@H]1N2C [4'g (WIN 35, 065-2)]", "nM", 65]
]}

----------
molecular target: dopamine transporter ([^3 H]CFT binding sites, primate caudate-putamen) (Macaca fascicularis, UniProt Q9GJT6); construct: from tissue; host or cells: caudate-putamen membranes of cynomolgus monkey brain; assay: Inhibition of [^3 H]CFT binding in monkey caudate-putamen membranes (Table 2); design: species or system cynomolgus monkeys (Macaca fascicularis)
Sequence (Q9GJT6 whole entry): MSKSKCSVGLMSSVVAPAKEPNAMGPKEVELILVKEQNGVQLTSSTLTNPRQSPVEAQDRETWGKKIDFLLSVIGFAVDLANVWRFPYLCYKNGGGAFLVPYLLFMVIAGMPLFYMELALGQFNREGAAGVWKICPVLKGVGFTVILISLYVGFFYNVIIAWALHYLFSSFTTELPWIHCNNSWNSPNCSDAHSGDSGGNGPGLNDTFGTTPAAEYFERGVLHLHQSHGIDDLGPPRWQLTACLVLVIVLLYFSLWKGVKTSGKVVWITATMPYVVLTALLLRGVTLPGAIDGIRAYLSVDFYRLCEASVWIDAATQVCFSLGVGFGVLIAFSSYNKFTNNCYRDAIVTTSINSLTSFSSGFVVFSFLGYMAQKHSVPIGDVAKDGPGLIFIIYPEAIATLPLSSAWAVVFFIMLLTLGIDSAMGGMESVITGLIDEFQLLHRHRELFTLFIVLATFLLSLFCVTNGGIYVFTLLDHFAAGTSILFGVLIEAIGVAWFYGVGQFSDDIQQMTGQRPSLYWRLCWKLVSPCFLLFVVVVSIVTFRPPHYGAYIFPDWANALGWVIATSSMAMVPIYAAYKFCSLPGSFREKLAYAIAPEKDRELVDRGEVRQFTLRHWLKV
# IC50 per record follows

{"columns": ["compound", "IC50 (nM)"],
 "data": [
  ["COC(=O)[C@H]1[C@@H](c2cccc(I)c2)C[C@@H]2CC[C@H]1N2C", 27.8],
  ["COC(=O)[C@H]1[C@@H](c2ccc(I)cc2)C[C@@H]2CC[C@H]1N2C [4'h (RTI-55), 2β-carbomethoxy-3β-(4-iodophenyl)tropane]", 1.08],
  ["CCC[CH2][Sn]([CH2]CCC)([CH2]CCC)[c]1cccc([C@H]2C[C@@H]3CC[C@H]([C@H]2C(=O)OC)N3C)c1", 1080],
  ["COC(=O)[C@H]1[C@@H](c2ccc(Cl)cc2)C[C@@H]2CC[C@H]1N2C", 1.4],
  ["COC(=O)[C@H]1[C@@H](c2cccc(Br)c2)C[C@@H]2CC[C@H]1N2C", 7.93]
]}
